Entry source: the RNAGym collection of RNA variant scans (doi:10.7554/elife.90254)

B1: LINE1-full (parent)
chain: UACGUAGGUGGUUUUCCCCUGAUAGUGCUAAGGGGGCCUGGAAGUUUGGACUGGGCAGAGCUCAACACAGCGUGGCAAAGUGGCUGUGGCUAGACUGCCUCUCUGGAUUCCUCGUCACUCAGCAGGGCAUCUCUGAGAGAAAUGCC

variants of: B1; test: self-cleavage, relative activity (ratio to wild type); higher = more cleavage; in vitro, sequencing; the parent is a self-cleaving ribozyme
recorded endpoint: self-cleavage
Just the number, please.

Worked cases, self-cleavage given:
> print(dat)
   mutation.name  readout.number
1      A24G A92U            1.34
2      A22G A50G            0.97
3      U29G G35C            1.03

Q: self-cleavage lookup needed for G86A A117G , thanks.
A: 0.09

Q: self-cleavage lookup needed for A24U A138U , thanks.
A: 1.93

Q: self-cleavage lookup needed for U96C A121U , thanks.
A: 0.13

Q: self-cleavage lookup needed for A24G U45C , thanks.
A: 1.12

Q: self-cleavage lookup needed for "A69G" , thanks.
A: 0.5

Q: self-cleavage lookup needed for G55U U115C , thanks.
A: 0.4

Q: self-cleavage lookup needed for U29A G48A , thanks.
A: 1.01
